Value source: ChEMBL document CHEMBL4130626

So I've got pKi readings for UniProt:Q8IV61, take a look.
pKi: −log10 of the molar value.

| molecule | pKi |
| --- | --- |
| CN(C)c1ccc(C(=O)OCC2(CO)C/C(=C\c3cn(C)c4ccccc34)C(=O)O2)cc1 (centres undefined) | 7.74 |
| CCCC(CCC)C(=O)OCC1(CO)C/C(=C\c2cn(C)c3ccccc23)C(=O)O1 (centres undefined) | 9.08 |
| CC(C)(C)C(=O)OCC1(CO)C/C(=C\c2csc3ccccc23)C(=O)O1 (centres undefined) | 8.78 |
| COc1ccc(/C=C2\CC(CO)(COC(=O)c3ccc(OC)cc3)OC2=O)cc1 (centres undefined) | 8.38 |
| COc1ccc(C(=O)OCC2(CO)C/C(=C\c3ccc(N(C)C)cc3)C(=O)O2)cc1 (centres undefined) | 8.13 |
| Cn1cc(/C=C/C(=O)OCC2(CO)C/C(=C\c3cn(C)c4ccccc34)C(=O)O2)c2ccccc21 (centres undefined) | 7.80 |
| COc1ccc2c(c1)c(/C=C1\CC(CO)(COC(=O)C(C)(C)C)OC1=O)cn2C (centres undefined) | 8.32 |
| CC(C)(C)C(=O)OCC1(CO)C/C(=C/c2csc3ccccc23)C(=O)O1 (centres undefined) | 8.37 |
| CCCCn1cc(/C=C2\CC(CO)(COC(=O)C(C)(C)C)OC2=O)c2ccccc21 (centres undefined) | 8.73 |

----------
- target.or.system: RAS guanyl-releasing protein 1 (Homo sapiens, UniProt O95267)
- Sequence (O95267 whole entry): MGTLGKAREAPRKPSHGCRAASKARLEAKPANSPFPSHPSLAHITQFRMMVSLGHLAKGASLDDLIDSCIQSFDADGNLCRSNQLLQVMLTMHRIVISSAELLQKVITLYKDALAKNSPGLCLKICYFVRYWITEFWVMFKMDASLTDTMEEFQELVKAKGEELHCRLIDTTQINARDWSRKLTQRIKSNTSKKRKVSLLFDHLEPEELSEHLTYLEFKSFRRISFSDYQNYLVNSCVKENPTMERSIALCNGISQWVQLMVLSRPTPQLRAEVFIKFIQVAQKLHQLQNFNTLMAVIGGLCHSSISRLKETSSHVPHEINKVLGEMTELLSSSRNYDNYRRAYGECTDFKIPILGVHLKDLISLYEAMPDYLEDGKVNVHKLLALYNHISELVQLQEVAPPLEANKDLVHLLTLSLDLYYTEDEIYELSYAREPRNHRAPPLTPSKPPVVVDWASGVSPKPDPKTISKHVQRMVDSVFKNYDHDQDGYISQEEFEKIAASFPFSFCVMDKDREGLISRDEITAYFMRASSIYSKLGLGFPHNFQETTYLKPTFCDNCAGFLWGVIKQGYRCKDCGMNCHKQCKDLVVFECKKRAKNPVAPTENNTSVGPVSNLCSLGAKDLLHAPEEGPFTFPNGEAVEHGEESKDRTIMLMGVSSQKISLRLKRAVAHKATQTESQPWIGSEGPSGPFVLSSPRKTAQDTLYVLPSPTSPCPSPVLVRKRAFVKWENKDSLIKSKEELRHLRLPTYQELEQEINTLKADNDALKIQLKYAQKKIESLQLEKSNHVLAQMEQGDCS
- assay.comment: Activation of GFP-tagged RasGRP1 (unknown origin) expressed in HEK293 cells after 30 mins by immunoblot method
- Assay type: cell-based

| compound | EC50 |
| --- | --- |
| Cn1cc(/C=C2\CC(CO)(COC(=O)C(C)(C)C)OC2=O)c2ccccc21 (stereo unspecified) | 0.86 µM |

----------
- target.or.system: Protein kinase C delta type (Homo sapiens, UniProt Q05655)
- Sequence (Q05655 whole entry): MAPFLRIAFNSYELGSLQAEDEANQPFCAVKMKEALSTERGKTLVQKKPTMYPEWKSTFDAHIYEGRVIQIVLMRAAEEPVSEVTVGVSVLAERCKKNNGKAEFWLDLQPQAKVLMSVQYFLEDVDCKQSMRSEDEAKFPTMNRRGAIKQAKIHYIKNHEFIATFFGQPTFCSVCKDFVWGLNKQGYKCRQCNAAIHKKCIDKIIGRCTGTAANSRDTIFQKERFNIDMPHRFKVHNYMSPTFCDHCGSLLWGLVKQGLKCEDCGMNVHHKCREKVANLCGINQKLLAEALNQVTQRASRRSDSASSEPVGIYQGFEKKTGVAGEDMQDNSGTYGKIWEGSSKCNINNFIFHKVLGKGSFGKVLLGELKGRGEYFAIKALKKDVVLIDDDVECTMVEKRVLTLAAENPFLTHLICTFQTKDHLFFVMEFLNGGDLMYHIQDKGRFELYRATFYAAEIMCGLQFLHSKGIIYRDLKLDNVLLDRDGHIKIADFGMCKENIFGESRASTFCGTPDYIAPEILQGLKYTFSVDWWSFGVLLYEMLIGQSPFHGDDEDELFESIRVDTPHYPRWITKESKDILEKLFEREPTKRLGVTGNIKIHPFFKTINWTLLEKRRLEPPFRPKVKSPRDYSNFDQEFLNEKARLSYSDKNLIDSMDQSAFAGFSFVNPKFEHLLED
- assay.comment: Activation of PKCdelta in human Ramos cells expressing RasGRP3 assessed as phosphorylation at ser299 residues after 30 mins by immunoblot method
- Type: cell-based
pEC50: −log10 of the molar value.

| molecule | pEC50 |
| --- | --- |
| Cn1cc(/C=C2\CC(CO)(COC(=O)C(C)(C)C)OC2=O)c2ccccc21 (stereo unspecified) | 4.61 |

----------
- target.or.system: Ras guanyl-releasing protein 3 (Homo sapiens, UniProt Q8IV61)
- assay.comment: Activation of GFP-tagged RasGRP3 (unknown origin) expressed in HEK293 cells assessed as ERK1/2 phosphorylation after 30 mins by immunoblot method
- Format: cell-based

| compound | EC50 (µM) |
| --- | --- |
| Cn1cc(/C=C2\CC(CO)(COC(=O)C(C)(C)C)OC2=O)c2ccccc21 (stereo unspecified) | 4.66 |

----------
- target.or.system: UniProt:Q8IV61
- Sequence (Q8IV61 whole entry): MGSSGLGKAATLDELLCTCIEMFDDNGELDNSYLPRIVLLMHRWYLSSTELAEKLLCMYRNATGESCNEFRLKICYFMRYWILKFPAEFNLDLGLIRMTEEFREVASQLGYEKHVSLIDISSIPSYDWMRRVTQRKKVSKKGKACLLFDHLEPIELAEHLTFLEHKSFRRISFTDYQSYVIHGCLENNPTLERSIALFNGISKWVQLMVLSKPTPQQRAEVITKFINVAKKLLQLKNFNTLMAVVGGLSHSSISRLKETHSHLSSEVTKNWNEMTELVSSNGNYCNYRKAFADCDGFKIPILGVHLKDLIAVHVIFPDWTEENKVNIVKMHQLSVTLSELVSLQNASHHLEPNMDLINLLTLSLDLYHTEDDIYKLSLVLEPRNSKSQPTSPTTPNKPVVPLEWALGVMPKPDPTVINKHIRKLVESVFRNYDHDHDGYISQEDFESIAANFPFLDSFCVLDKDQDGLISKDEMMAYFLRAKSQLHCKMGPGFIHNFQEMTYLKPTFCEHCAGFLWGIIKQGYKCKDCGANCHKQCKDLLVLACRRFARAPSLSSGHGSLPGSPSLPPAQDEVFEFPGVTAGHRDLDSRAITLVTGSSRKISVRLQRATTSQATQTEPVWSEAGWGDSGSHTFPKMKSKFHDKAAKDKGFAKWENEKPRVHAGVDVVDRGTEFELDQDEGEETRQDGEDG
- assay.comment: Activation of GFP-tagged RasGRP3 (unknown origin) expressed in HEK293 cells after 30 mins by immunoblot method
- Assay type: cell-based
pEC50: −log10 of the molar value.

| compound | pEC50 |
| --- | --- |
| CCCCCCCCCCCCCC(=O)O[C@@H]1[C@@H](C)[C@@]2(O)[C@@H](C=C(CO)C[C@]3(O)C(=O)C(C)=C[C@@H]23)[C@@H]2C(C)(C)[C@]12OC(C)=O [PHORBOL MYRISTATE ACETATE] | 7.09 |
| Cn1cc(/C=C2\CC(CO)(COC(=O)C(C)(C)C)OC2=O)c2ccccc21 (configuration not stated) | 5.74 |
